tested on: pro MMP-2; experiment: Gelatin zymography of HT-1080 supernatants, pro MMP-2; assay type: cell-based, human; details: gelatin zymography, HT-1080 supernatant
ENDPOINT: IC50 (µM)
Answers are plain numbers, in µM.

Query (molecule): O=C(OCC1OC(OC(=O)c2cc(O)c(O)c(O)c2)C(OC(=O)c2cc(O)c(O)c(O)c2)C(OC(=O)c2cc(O)c(O)c(O)c2)C1OC(=O)c1ccc(O)cc1)c1cc(O)c(O)c(O)c1 (centres unmarked) [4GX] ; field requested: IC50
30

// below: IC50 requested for another molecule
Give its IC50 value. Item: O=C(OC[C@H]1O[C@@H](OC(=O)c2cc(O)c(O)c(O)c2)[C@H](OC(=O)c2cc(O)c(O)c(O)c2)[C@@H](OC(=O)c2cc(O)c(O)c(O)c2)[C@@H]1O)c1cc(O)c(O)c(O)c1 [4G, 1,2,3,6-tetra-O-galloyl-β-D-glucose]
99.6
